Target: CYP2C19 (Homo sapiens, UniProt P33261)
Sequence (P33261 whole entry): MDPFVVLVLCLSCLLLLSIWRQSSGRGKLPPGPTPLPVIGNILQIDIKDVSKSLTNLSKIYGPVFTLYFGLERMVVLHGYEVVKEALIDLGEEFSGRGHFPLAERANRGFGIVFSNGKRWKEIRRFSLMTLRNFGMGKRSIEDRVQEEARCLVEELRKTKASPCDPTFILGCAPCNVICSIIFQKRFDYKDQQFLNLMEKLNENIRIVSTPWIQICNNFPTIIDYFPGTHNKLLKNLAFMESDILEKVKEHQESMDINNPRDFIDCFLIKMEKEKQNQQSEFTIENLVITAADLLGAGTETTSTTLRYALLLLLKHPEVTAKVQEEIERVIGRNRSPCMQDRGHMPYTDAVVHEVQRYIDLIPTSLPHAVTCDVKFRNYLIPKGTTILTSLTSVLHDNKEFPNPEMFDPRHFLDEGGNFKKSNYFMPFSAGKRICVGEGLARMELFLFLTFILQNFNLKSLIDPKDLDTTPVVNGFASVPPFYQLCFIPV
parameter-measured: IC50 (µM)

{"columns": ["molecular-string", "unit-spec", "value-observed"],
 "data": [
  ["O=S(=O)(NCc1ccc2c(c1)OCO2)c1ccc(Cc2ccc(S(=O)(=O)NCc3ccc4c(c3)OCO4)cc2)cc1", "µM", 28]
]}

====

Experiment: In vivo pharmacokinetics, plasma LC-MS/MS
Settings: male, CD-1, mouse, plasma, iv, 5 mg/kg, IV; 8 hours; read-out: Plasma concentration (IV)
Procedure: Pharmacokinetic and cytochrome P450 inhibition studies. Studies were performed with the assistance of Touchstone Biosciences (Plymouth Meeting, Pennsylvania). For pharmacokinetic bioanalysis, male CD-1 mice were fasted overnight before being dosed with M1i-124 via oral gavage (20mg/kg), intraperitoneal injection in the lower right quadrant of the abdomen (20 mg/kg), or intravenous tail vein injection (5 mg/kg). […] The plasma concentration of the compound was determined using LC-MS/MS analysis. […]
parameter-measured: concentration at 8 h (ng/mL)

{"columns": ["molecular-string", "parameter-measured", "unit-spec", "value-observed"],
 "data": [
  ["O=S(=O)(NCc1ccc2c(c1)OCO2)c1ccc(Cc2ccc(S(=O)(=O)NCc3ccc4c(c3)OCO4)cc2)cc1", "concentration at 8 h", "ng/mL", 8.84]
]}

====

Assay: In vivo pharmacokinetics, plasma LC-MS/MS
Conditions: male, CD-1, mouse, plasma; mice, 20 mg/kg oral; read-out: Cmax
Description: Pharmacokinetic and cytochrome P450 inhibition studies. Studies were performed with the assistance of Touchstone Biosciences (Plymouth Meeting, Pennsylvania). For pharmacokinetic bioanalysis, male CD-1 mice were fasted overnight before being dosed with M1i-124 via oral gavage (20mg/kg), intraperitoneal injection in the lower right quadrant of the abdomen (20 mg/kg), or intravenous tail vein injection (5 mg/kg). […] The plasma concentration of the compound was determined using LC-MS/MS analysis. […]
parameter-measured: Cmax (ng/mL)

{"columns": ["molecular-string", "value-observed"],
 "data": [
  ["O=S(=O)(NCc1ccc2c(c1)OCO2)c1ccc(Cc2ccc(S(=O)(=O)NCc3ccc4c(c3)OCO4)cc2)cc1", 294]
]}

====

Tested on: TMD8 cells
Experiment: cells
Parameters: species or system TMD8 or OCI-Ly3; Inhibition of spontaneous IL-6 secretion from ABC-DLBCL cells, human IL-6 ELISA of supernatants
Conditions: Homo sapiens, TMD8, 20 h; IL-6 secretion; read-out: IC50 (µM) IL-6 inhibition

{"columns": ["molecular-string", "IC50"],
 "data": [
  ["COc1ccc(CNS(=O)(=O)c2ccc(Cc3ccc(S(=O)(=O)NCc4ccc(OC)cc4)cc3)cc2)cc1", "0.8 µM"],
  ["O=S(=O)(NCc1ccc2c(c1)OCO2)c1ccc(Cc2ccc(S(=O)(=O)NCc3ccc4c(c3)OCO4)cc2)cc1", "1.3 µM"]
]}

====

Test: In vivo pharmacokinetics, plasma LC-MS/MS
Details: male, CD-1, mouse, plasma, ip, 20 mg/kg, IP; 8 hours; read-out: Plasma concentration (IP)

{"columns": ["compound", "concentration at 8 h"],
 "data": [
  ["O=S(=O)(NCc1ccc2c(c1)OCO2)c1ccc(Cc2ccc(S(=O)(=O)NCc3ccc4c(c3)OCO4)cc2)cc1 [M1i-124]", "53.2 ng/mL"]
]}

====

Test: In vivo pharmacokinetics, plasma LC-MS/MS
Details: male, CD-1, mouse, plasma, po, 20 mg/kg, PO; 8 hours; read-out: Plasma concentration (PO)
Protocol: Pharmacokinetic and cytochrome P450 inhibition studies. Studies were performed with the assistance of Touchstone Biosciences (Plymouth Meeting, Pennsylvania). For pharmacokinetic bioanalysis, male CD-1 mice were fasted overnight before being dosed with M1i-124 via oral gavage (20mg/kg), intraperitoneal injection in the lower right quadrant of the abdomen (20 mg/kg), or intravenous tail vein injection (5 mg/kg). […] The plasma concentration of the compound was determined using LC-MS/MS analysis. […]
parameter-measured: concentration at 8 h (ng/mL)

{"columns": ["molecular-string", "parameter-measured", "unit-spec", "value-observed"],
 "data": [
  ["O=S(=O)(NCc1ccc2c(c1)OCO2)c1ccc(Cc2ccc(S(=O)(=O)NCc3ccc4c(c3)OCO4)cc2)cc1", "concentration at 8 h", "ng/mL", 11.7]
]}

====

Assay: In vivo pharmacokinetics, plasma LC-MS/MS
Details: male, CD-1, mouse, plasma, iv, 5 mg/kg, IV; 4 hours; read-out: Plasma concentration (IV)

{"columns": ["molecular-string", "unit-spec", "concentration at 4 h"],
 "data": [
  ["O=S(=O)(NCc1ccc2c(c1)OCO2)c1ccc(Cc2ccc(S(=O)(=O)NCc3ccc4c(c3)OCO4)cc2)cc1", "ng/mL", 13.4]
]}

====

Target: full-length MALT1 (Homo sapiens, UniProt Q9UDY8)
Sequence (Q9UDY8 1-813 isoform Q9UDY8-2): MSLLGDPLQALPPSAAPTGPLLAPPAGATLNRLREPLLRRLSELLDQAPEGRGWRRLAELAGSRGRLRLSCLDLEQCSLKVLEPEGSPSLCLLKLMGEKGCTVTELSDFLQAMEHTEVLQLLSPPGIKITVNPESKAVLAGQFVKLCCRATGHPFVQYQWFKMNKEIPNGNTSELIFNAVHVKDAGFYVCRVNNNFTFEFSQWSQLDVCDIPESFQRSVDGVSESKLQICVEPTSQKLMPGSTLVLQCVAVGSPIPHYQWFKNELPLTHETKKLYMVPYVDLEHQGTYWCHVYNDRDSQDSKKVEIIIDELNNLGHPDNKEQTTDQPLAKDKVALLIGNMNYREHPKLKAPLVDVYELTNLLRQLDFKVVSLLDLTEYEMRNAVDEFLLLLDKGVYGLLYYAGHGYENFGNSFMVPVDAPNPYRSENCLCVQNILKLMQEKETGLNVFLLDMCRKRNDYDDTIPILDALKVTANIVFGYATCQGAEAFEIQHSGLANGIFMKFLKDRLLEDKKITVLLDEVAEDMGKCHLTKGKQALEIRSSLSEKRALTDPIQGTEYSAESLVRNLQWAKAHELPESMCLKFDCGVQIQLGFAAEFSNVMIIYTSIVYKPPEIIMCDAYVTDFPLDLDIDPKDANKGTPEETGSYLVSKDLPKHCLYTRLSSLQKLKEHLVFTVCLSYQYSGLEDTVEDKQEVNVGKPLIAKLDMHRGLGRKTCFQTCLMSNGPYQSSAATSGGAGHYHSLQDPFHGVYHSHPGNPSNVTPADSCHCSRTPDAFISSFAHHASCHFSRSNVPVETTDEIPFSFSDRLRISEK

{"columns": ["molecular-string", "Kd"],
 "data": [
  ["O=S(=O)(NCc1ccc2c(c1)OCO2)c1ccc(Cc2ccc(S(=O)(=O)NCc3ccc4c(c3)OCO4)cc2)cc1", "296 µM"]
]}

====

Test system: COX1/2
Test: SAFETYscan78 off-target screen
Conditions: off-target panel; read-out: EC50 or IC50, COX1/2

{"columns": ["compound", "assayed-system", "IC50"],
 "data": [
  ["O=S(=O)(NCc1ccc2c(c1)OCO2)c1ccc(Cc2ccc(S(=O)(=O)NCc3ccc4c(c3)OCO4)cc2)cc1 [M1i-124]", "COX1/2", "> 10 µM"]
]}

====

Test: In vivo pharmacokinetics, plasma LC-MS/MS
Details: male, CD-1, mouse, plasma, iv, 5 mg/kg, IV; 0.5 hours; read-out: Plasma concentration (IV)

{"columns": ["molecule", "concentration at 0.5 h [ng/mL]"],
 "data": [
  ["O=S(=O)(NCc1ccc2c(c1)OCO2)c1ccc(Cc2ccc(S(=O)(=O)NCc3ccc4c(c3)OCO4)cc2)cc1 [M1i-124]", 361]
]}

====

Experiment: In vivo pharmacokinetics, plasma LC-MS/MS
Conditions: male, CD-1, mouse, plasma, iv, 5 mg/kg, IV; 2 hours; read-out: Plasma concentration (IV)

{"columns": ["molecular-string", "concentration at 2 h [ng/mL]"],
 "data": [
  ["O=S(=O)(NCc1ccc2c(c1)OCO2)c1ccc(Cc2ccc(S(=O)(=O)NCc3ccc4c(c3)OCO4)cc2)cc1", 24.3]
]}

====

Assay: In vivo pharmacokinetics, plasma LC-MS/MS
Conditions: male, CD-1, mouse, plasma, iv; mice, 5 mg/kg i.v.; read-out: steady-state volume of distribution (Vss)
Experimental: Pharmacokinetic and cytochrome P450 inhibition studies. Studies were performed with the assistance of Touchstone Biosciences (Plymouth Meeting, Pennsylvania). For pharmacokinetic bioanalysis, male CD-1 mice were fasted overnight before being dosed with M1i-124 via oral gavage (20mg/kg), intraperitoneal injection in the lower right quadrant of the abdomen (20 mg/kg), or intravenous tail vein injection (5 mg/kg). […] The plasma concentration of the compound was determined using LC-MS/MS analysis. […]

{"columns": ["molecular-string", "Vd / L/kg"],
 "data": [
  ["O=S(=O)(NCc1ccc2c(c1)OCO2)c1ccc(Cc2ccc(S(=O)(=O)NCc3ccc4c(c3)OCO4)cc2)cc1", 15.4]
]}

====

Target: VEGFR2 (Homo sapiens)
Sequence (P35968 20-1356): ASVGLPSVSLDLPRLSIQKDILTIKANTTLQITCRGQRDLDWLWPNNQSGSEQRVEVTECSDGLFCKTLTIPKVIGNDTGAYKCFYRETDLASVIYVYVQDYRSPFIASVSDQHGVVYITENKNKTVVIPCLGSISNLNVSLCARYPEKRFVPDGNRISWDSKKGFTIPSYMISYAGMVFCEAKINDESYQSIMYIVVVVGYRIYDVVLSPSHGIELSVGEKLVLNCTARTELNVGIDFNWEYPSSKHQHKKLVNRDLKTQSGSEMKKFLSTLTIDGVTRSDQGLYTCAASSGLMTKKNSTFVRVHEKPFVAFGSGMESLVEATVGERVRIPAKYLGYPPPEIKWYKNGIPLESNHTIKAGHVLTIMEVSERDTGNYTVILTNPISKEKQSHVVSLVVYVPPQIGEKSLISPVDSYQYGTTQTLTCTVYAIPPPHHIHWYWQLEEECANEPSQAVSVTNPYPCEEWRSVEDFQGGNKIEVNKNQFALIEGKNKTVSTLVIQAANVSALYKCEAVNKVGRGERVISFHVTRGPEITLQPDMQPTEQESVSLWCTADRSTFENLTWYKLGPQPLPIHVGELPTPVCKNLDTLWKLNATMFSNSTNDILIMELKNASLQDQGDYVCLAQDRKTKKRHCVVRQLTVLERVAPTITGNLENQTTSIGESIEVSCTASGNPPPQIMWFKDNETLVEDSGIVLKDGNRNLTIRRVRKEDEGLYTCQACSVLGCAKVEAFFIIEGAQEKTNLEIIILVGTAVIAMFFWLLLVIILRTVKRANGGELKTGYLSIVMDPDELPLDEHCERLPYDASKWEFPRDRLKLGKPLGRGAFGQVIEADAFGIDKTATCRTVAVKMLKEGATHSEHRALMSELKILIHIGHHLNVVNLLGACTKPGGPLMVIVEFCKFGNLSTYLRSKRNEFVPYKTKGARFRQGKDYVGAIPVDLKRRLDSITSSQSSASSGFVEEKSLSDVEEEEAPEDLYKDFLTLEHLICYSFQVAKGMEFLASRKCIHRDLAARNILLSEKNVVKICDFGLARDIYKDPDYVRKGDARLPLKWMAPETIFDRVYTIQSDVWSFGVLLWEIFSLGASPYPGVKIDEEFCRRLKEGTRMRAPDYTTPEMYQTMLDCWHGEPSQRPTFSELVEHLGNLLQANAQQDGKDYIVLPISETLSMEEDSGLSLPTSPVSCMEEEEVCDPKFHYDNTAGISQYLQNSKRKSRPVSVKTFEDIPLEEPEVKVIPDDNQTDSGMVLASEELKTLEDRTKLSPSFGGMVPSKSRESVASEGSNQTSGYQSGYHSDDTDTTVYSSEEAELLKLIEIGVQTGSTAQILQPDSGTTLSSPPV
pIC50: −log10 of the molar value.

{"columns": ["molecular-string", "pIC50"],
 "data": [
  ["O=S(=O)(NCc1ccc2c(c1)OCO2)c1ccc(Cc2ccc(S(=O)(=O)NCc3ccc4c(c3)OCO4)cc2)cc1", "< 5.00"]
]}

====

Test: In vivo pharmacokinetics, plasma LC-MS/MS
Conditions: male, CD-1, mouse, in vivo, ip, 20 mg/kg, IP; 6 hours; read-out: Plasma concentration (IP)
parameter-measured: concentration at 6 h (ng/mL)

{"columns": ["compound", "unit-spec", "value-observed"],
 "data": [
  ["O=S(=O)(NCc1ccc2c(c1)OCO2)c1ccc(Cc2ccc(S(=O)(=O)NCc3ccc4c(c3)OCO4)cc2)cc1 [M1i-124]", "ng/mL", 54.8]
]}

====

Test: In vivo pharmacokinetics, plasma LC-MS/MS
Settings: male, CD-1, mouse, plasma, ip, 20 mg/kg, IP; 6 hours; read-out: Plasma concentration (IP)
parameter-measured: concentration at 6 h (µg/mL)

{"columns": ["molecular-string", "value-observed"],
 "data": [
  ["O=S(=O)(NCc1ccc2c(c1)OCO2)c1ccc(Cc2ccc(S(=O)(=O)NCc3ccc4c(c3)OCO4)cc2)cc1", 0.0753]
]}

====

Experiment: In vivo pharmacokinetics, plasma LC-MS/MS
Conditions: male, CD-1, mouse, plasma, po, 20 mg/kg, PO; 0.083 hours; read-out: Plasma concentration (PO)
parameter-measured: concentration at 0.083 h (ng/mL)

{"columns": ["molecular-string", "parameter-measured", "value-observed"],
 "data": [
  ["O=S(=O)(NCc1ccc2c(c1)OCO2)c1ccc(Cc2ccc(S(=O)(=O)NCc3ccc4c(c3)OCO4)cc2)cc1", "concentration at 0.083 h", 310]
]}
